# Experimental system: UniProt:P52333
# Sequence (P52333 1-1124): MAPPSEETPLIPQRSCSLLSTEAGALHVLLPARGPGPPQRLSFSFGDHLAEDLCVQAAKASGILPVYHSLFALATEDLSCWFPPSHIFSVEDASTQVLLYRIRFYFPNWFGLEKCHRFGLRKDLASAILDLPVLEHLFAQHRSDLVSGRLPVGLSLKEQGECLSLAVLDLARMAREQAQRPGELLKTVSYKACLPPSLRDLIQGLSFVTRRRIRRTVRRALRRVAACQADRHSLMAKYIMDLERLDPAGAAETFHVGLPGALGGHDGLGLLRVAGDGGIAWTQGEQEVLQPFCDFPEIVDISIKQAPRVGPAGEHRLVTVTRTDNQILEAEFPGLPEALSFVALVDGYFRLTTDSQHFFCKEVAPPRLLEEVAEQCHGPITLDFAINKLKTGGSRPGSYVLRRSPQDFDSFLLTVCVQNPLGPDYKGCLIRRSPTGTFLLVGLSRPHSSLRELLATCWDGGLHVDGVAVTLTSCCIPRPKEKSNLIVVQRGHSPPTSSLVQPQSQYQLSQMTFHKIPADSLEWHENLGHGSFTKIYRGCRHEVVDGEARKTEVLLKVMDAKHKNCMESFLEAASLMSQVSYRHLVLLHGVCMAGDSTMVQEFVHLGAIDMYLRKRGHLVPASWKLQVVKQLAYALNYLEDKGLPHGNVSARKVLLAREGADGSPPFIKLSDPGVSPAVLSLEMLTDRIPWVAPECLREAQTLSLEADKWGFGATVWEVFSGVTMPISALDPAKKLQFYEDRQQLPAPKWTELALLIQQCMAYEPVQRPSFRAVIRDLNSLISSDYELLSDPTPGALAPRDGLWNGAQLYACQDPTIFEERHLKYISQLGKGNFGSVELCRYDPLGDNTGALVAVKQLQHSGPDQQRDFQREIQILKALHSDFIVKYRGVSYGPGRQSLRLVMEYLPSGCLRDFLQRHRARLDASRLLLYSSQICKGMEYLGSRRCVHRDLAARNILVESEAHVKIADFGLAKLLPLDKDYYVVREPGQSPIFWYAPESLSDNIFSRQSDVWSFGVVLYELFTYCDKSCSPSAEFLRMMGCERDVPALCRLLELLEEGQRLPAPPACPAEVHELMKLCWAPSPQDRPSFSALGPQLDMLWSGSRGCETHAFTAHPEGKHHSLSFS
# Experiment: JAK3 Inhibition Assay
# Assay type: biochemical
# Reported conditions: 1 nM JAK3, 1 μM poly(Glu)4Tyr, 5 μM ATP, 25° C.; kind of constant not given
Short version: JAK3 (μM), inhibition data at least 0.003 µM is Criterion met, less is Criterion not met.

Compound	Class name
CC[C@@](C)(Nc1nc(-c2c[nH]c3ncc(Cl)cc23)ncc1F)C(=O)NCC(F)(F)F [compound 12]	Criterion met
CCNC(=O)C(C)(C)Nc1ccnc(-c2c[nH]c3ncc(Cl)cc23)n1 [compound 17]	Criterion not met
CC(C)(Nc1ccnc(-c2c[nH]c3ncc(Cl)cc23)n1)C(=O)NCC(F)(F)F [Compound No. 9]	Criterion not met
CC[C@](C)(Nc1nc(-c2c[nH]c3ncccc23)ncc1F)C(=O)NCC(F)(F)F [compound 3]	Criterion met
CC[C@](C)(Nc1nc(-c2c[nH]c3ncc(Cl)cc23)ncc1F)C(=O)NCC(F)(F)F [compound 15]	Criterion not met
CC(C)(Nc1ncnc(-c2c[nH]c3ncc(Cl)cc23)n1)C(=O)NCC(F)(F)F [compound 13]	Criterion not met
CC(C)(Nc1ncnc(-c2c[nH]c3ncccc23)n1)C(=O)NCC(F)(F)F [compound 6]	Criterion met

This collection of values is drawn from patent US20140243273A1.
